Reported selectivity ratio by item:
- assay_overview: Selectivity index, ratio of IC50 for cytotoxicity against human HEK293 cells to MIC for antimycobacterial activity against Mycobacterium tuberculosis H37Rv ATCC 27294
- Type: toxicity, cell-based
- conditions_used: read-out: Selectivity Index
Form field (numeric): enter value without unit.

Given the compound Cc1cccc2cc(Cn3cc(Cn4cnn(-c5ccccc5)c4=O)nn3)c(Cl)nc12 , what is its reported selectivity ratio?
234

---

Reported MIC by item:
- System: Mycobacterium tuberculosis
- assay_overview: Antimycobacterial activity against Mycobacterium tuberculosis H37Rv ATCC 27294 assessed as reduction in bacterial growth by microplate alamar blue assay
- Assay type: functional
Field: numeric (µg/mL). Do not append units.

molecule: COc1ccc(-n2ncn(Cc3cn(Cc4cc5cc(Cl)ccc5nc4Cl)nn3)c2=O)cc1
system_name: Mycobacterium tuberculosis
units: µg/mL
recorded_number: 3.12

molecule: COc1ccc(-n2ncn(Cc3cn(Cc4cc5cc(Br)ccc5nc4Cl)nn3)c2=O)cc1
system_name: Mycobacterium tuberculosis
units: µg/mL
recorded_number: 6.25

molecule: O=C(O)c1cn(C2CC2)c2cc(N3CCNCC3)c(F)cc2c1=O [CIPROFLOXACIN]
system_name: Mycobacterium tuberculosis
units: µg/mL
recorded_number: 3.12

molecule: O=c1n(Cc2cn(Cc3cc4ccccc4nc3Cl)nn2)cnn1-c1ccccc1
system_name: Mycobacterium tuberculosis
units: µg/mL
recorded_number: 25

molecule: COc1ccc(-n2ncn(Cc3cn(Cc4cc5cccc(C)c5nc4Cl)nn3)c2=O)cc1
system_name: Mycobacterium tuberculosis
units: µg/mL
recorded_number: 1.6

Next item in the queue.
Given the molecule COc1ccc(-n2ncn(Cc3cn(Cc4cc5ccccc5nc4Cl)nn3)c2=O)cc1 , what is its reported MIC?
12.5

---

Reported MIC by item:
- Test system: Mycobacterium tuberculosis
- assay_overview: Antimycobacterial activity against Mycobacterium tuberculosis H37Rv ATCC 27294 assessed as reduction in bacterial growth by microplate alamar blue assay
- Format: functional
Could you kindly put the unit after your number?

compound: O=c1n(Cc2cn(Cc3cc4cc(Br)ccc4nc3Cl)nn2)cnn1-c1ccccc1
quantity: MIC
result: 25 µg/mL
--
compound: Cc1ccc2nc(Cl)c(Cn3cc(Cn4cnn(-c5ccccc5)c4=O)nn3)cc2c1
quantity: MIC
result: 3.12 µg/mL
--
compound: COc1ccc2cc(Cn3cc(Cn4cnn(-c5ccccc5)c4=O)nn3)c(Cl)nc2c1
quantity: MIC
result: 1.6 µg/mL
--
compound: COc1ccc(-n2ncn(Cc3cn(Cc4cc5ccc(Cl)cc5nc4Cl)nn3)c2=O)cc1
quantity: MIC
result: 3.12 µg/mL
--
compound: NNC(=O)c1ccncc1 [ISONIAZID]
quantity: MIC
result: 1.6 µg/mL

Next item in the queue.
Given the compound Cc1cccc2cc(Cn3cc(Cn4cnn(-c5ccccc5)c4=O)nn3)c(Cl)nc12 , what is its reported MIC?
1.6 µg/mL

---

- assay_overview: Selectivity index, ratio of IC50 for cytotoxicity against human HEK293 cells to MIC for antimycobacterial activity against Mycobacterium tuberculosis H37Rv ATCC 27294
- Type: toxicity, cell-based
- conditions_used: read-out: Selectivity Index
// returns FALSE unless selectivity ratio is strictly below 80, in which case TRUE

Does the reported selectivity ratio of O=c1n(Cc2cn(Cc3cc4ccc(Cl)cc4nc3Cl)nn2)cnn1-c1ccccc1 stay below 80?
TRUE

Does the reported selectivity ratio of COc1ccc(-n2ncn(Cc3cn(Cc4cc5cc(Br)ccc5nc4Cl)nn3)c2=O)cc1 stay below 80?
TRUE

Does the reported selectivity ratio of COc1ccc(-n2ncn(Cc3cn(Cc4cc5cc(Cl)ccc5nc4Cl)nn3)c2=O)cc1 stay below 80?
FALSE

Does the reported selectivity ratio of Cc1ccc2nc(Cl)c(Cn3cc(Cn4cnn(-c5ccccc5)c4=O)nn3)cc2c1 stay below 80?
FALSE

Does the reported selectivity ratio of O=c1n(Cc2cn(Cc3cc4cc(Cl)ccc4nc3Cl)nn2)cnn1-c1ccccc1 stay below 80?
TRUE

Does the reported selectivity ratio of COc1ccc(-n2ncn(Cc3cn(Cc4cc5cccc(C)c5nc4Cl)nn3)c2=O)cc1 stay below 80?
FALSE

Does the reported selectivity ratio of COc1ccc(-n2ncn(Cc3cn(Cc4cc5ccccc5nc4Cl)nn3)c2=O)cc1 stay below 80?
TRUE

Does the reported selectivity ratio of O=c1n(Cc2cn(Cc3cc4ccccc4nc3Cl)nn2)cnn1-c1ccccc1 stay below 80?
TRUE
